Assay summary: clinical
Measurement context: human, in vivo, iv, t1/2
Here, each record is paired with measured half-life data.
Expressed in h, but write only the number.

See these solved cases before continuing.
CCC(=O)OCC(=O)[C@@]1(OC(=O)CC)[C@@H](C)C[C@H]2[C@@H]3CCC4=CC(=O)C=C[C@]4(C)[C@@]3(Cl)[C@@H](O)C[C@@]21C [BECLOMETHASONE DIPROPIONATE] = 0.5
C[C@@H](O)[C@H]1C(=O)N2C(C(=O)O)=C(S[C@H]3C[C@@H](C(=O)N4CC[C@H](NC(=O)CNC(=N)N)C4)N(C)C3)[C@H](C)[C@H]12 = 1.7
CCOc1ccccc1OCCN[C@H](C)Cc1ccc(OC)c(S(N)(=O)=O)c1 = 6.8

Quick one: half-life for CCCCCCCCCC(=O)N[C@@H](Cc1c[nH]c2ccccc12)C(=O)N[C@H](CC(N)=O)C(=O)N[C@@H](CC(=O)O)C(=O)N[C@@H]1C(=O)NCC(=O)N[C@@H](CCCN)C(=O)N[C@@H](CC(=O)O)C(=O)N[C@H](C)C(=O)N[C@@H](CC(=O)O)C(=O)NCC(=O)N[C@H](CO)C(=O)N[C@@H]([C@H](C)CC(=O)O)C(=O)N[C@@H](CC(=O)c2ccccc2N)C(=O)O[C@@H]1C ?
8.1

Quick one: half-life for Nc1nc(Cl)nc2c1ncn2[C@H]1C[C@H](O)[C@@H](CO)O1 ?
16

Quick one: half-life for CC(C)(O)c1ccccc1CC[C@@H](SCC1(CC(=O)O)CC1)c1cccc(/C=C/c2ccc3ccc(Cl)cc3n2)c1 ?
5
